system: MDA-MB-231; experiment: kynurenine production, fold change vs DMSO IFNg/TNF control; higher = more kynurenine produced (less inhibition); settings: pre-treatment time: 18 h then 24 h IFNg/TNF
// Criterion not met strictly below 0.9 in kynurenine production; Criterion met otherwise

Below are worked cases with known answers.
CC1(C)[C@@H](O[C@H]2O[C@H](C(=O)O)[C@@H](O)[C@H](O)[C@H]2O[C@@H]2O[C@H](C(=O)O)[C@@H](O)[C@H](O)[C@H]2O)CC[C@]2(C)[C@H]3C(=O)C=C4[C@@H]5C[C@@](C)(C(=O)O)CC[C@]5(C)CC[C@@]4(C)[C@]3(C)CC[C@@H]12 [Glycyrrhizic acid] (compound dose: 10 uM)	Criterion not met
CC(=O)OC(C)(C)CCC(=O)[C@](C)(O)[C@H]1[C@H](O)C[C@@]2(C)[C@@H]3CC=C4[C@@H](C[C@H](O)[C@@H](O)C4(C)C)[C@]3(C)C(=O)C[C@]12C [Cucurbitacin IIa] (compound dose: 10 uM)	Criterion not met
OC[C@H]1O[C@@H](O[C@@H]2OC=C[C@H]3[C@H](O)[C@@H]4O[C@]4(CO)[C@@H]23)[C@H](O)[C@@H](O)[C@@H]1O [Catalpol] (compound dose: 10 uM)	Criterion not met
C[C@H]1[C@@H](O)O[C@@H]2O[C@@]3(C)CC[C@H]4[C@H](C)CC[C@@H]1[C@@]24OO3 [Dihydroartemisinin] (compound dose: 10 uM)	Criterion not met
C=C1C[C@@]23CC[C@H]4[C@@](C)(CCC[C@@]4(C)C(=O)O[C@@H]4O[C@H](CO)[C@@H](O)[C@H](O)[C@H]4O[C@@H]4O[C@H](CO)[C@@H](O)[C@H](O)[C@H]4O)[C@@H]2CC[C@]1(O[C@@H]1O[C@H](CO)[C@@H](O)[C@H](O[C@@H]2O[C@H](CO)[C@@H](O)[C@H](O)[C@H]2O)[C@H]1O[C@@H]1O[C@H](CO)[C@@H](O)[C@H](O)[C@H]1O)C3 [Rebaudioside D] (compound dose: 10 uM)	Criterion met
CC1=CC[C@@H](C(C)(C)O)CC1 [(-)-α-Terpineol] (compound dose: 10 uM)	Criterion not met
C/C=C(/C)C(=O)O[C@H]1C(C)=C[C@]23C(=O)[C@@H](C=C(CO)[C@@H](O)[C@]12O)[C@H]1[C@@H](C[C@H]3C)C1(C)C [Ingenol Mebutate] (compound dose: 10 uM)	Criterion not met
CC(C)=CCC[C@](C)(O[C@@H]1O[C@H](CO)[C@@H](O)[C@H](O)[C@H]1O)[C@H]1CC[C@]2(C)[C@@H]1[C@H](O)C[C@@H]1[C@@]3(C)CC[C@H](O)C(C)(C)[C@@H]3[C@@H](O[C@@H]3O[C@H](CO)[C@@H](O)[C@H](O)[C@H]3O[C@@H]3OC[C@@H](O)[C@H](O)[C@H]3O)C[C@]12C [Notoginsenoside R1] (compound dose: 10 uM)	Criterion met

INPUT: Determine whether this molecule has kynurenine production no lower than 0.9: C[C@@H]1CC[C@]2(C(=O)O[C@@H]3O[C@H](CO)[C@@H](O)[C@H](O)[C@H]3O)CC[C@]3(C)C(=CC[C@@H]4[C@@]5(C)C[C@@H](O)[C@H](O)C(C)(C)[C@@H]5CC[C@]43C)[C@@H]2[C@]1(C)O [Rosamultin] (compound dose: 10 uM)
OUTPUT: Criterion met

INPUT: Determine whether this molecule has kynurenine production no lower than 0.9: CC1(C)CC[C@]2(C(=O)O[C@@H]3O[C@H](CO)[C@@H](O)[C@H](O)[C@H]3O)CC[C@]3(C)C(=CC[C@@H]4[C@@]5(C)CC[C@H](O[C@@H]6O[C@H](C(=O)O)[C@@H](O)[C@H](O)[C@H]6O[C@H]6OC[C@@H](O)[C@H](O)[C@H]6O)C(C)(C)[C@@H]5CC[C@]43C)[C@@H]2C1 [Pseudoginsenoside RT1] (compound dose: 10 uM)
OUTPUT: Criterion met

INPUT: Determine whether this molecule has kynurenine production no lower than 0.9: COC(=O)C[C@](O)(CCCC(C)(C)O)C(=O)O[C@@H]1C(OC)=C[C@]23CCCN2CCc2cc4c(cc2[C@H]13)OCO4 [Homoharringtonine] (compound dose: 10 uM)
OUTPUT: Criterion not met

INPUT: Determine whether this molecule has kynurenine production no lower than 0.9: CSC(=O)OCC1=C[C@@H]2OC(=O)C3=CO[C@@H](O[C@@H]4O[C@H](CO)[C@@H](O)[C@H](O)[C@H]4O)[C@H]1[C@@H]32 [Paederoside] (compound dose: 10 uM)
OUTPUT: Criterion met

INPUT: Determine whether this molecule has kynurenine production no lower than 0.9: CCCCCCCCCCCCCC(=O)O[C@@]12[C@H](O)[C@@H](C)[C@@]3(O)[C@@H](C=C(CO)C[C@]4(O)C(=O)C(C)=C[C@@H]34)[C@H]1C2(C)C [Phorbol 13-myristate] (compound dose: 10 uM)
OUTPUT: Criterion not met

INPUT: Determine whether this molecule has kynurenine production no lower than 0.9: C[C@@]12CCc3occc3[C@H]1CC[C@@]13C[C@@H](CC[C@H]12)[C@@](O)(CO)C3 [Cafestol] (compound dose: 10 uM)
OUTPUT: Criterion not met

INPUT: Determine whether this molecule has kynurenine production no lower than 0.9: C[C@@H]1O[C@@H](O[C@@H]2[C@H](O)[C@@H](O)[C@H](O[C@H]3CC[C@@]4(C)C(CC[C@]5(C)C4C=C[C@]46OC[C@@]7(CCC(C)(C)CC74)[C@@H](O)C[C@]65C)C3(C)C)O[C@@H]2CO[C@@H]2O[C@H](CO)[C@@H](O)[C@H](O)[C@H]2O)[C@H](O)[C@H](O)[C@H]1O (stereo partly specified) [Saikosaponin C] (compound dose: 10 uM)
OUTPUT: Criterion met
